PROCEDURE SUMMARY: protein stability index of a GFP-peptide fusion (yeast GPS) (PSI 1-4); higher = more stable; sorted into four equal gates, so the index is relative within each strain
ASSAY SETUP: san1∆
Listed here are sequences together with their documented protein stability index.

BIOPOLYMER SEQUENCE	protein stability index
VTALEVLSLGRPNLPTH [RGR1]	2.18
LKESVEGEFNGDTIELA [PRE8]	3.4
QNENLPSDKSDSMVDKE [SSN2]	2.73
KTDTKVSFRTHNSHLSL [SRP21]	2.92
SNYDWLFQLLNALTVGD [RPN9]	2.2
SVLHSWVQLVQIIVTDG [YJL039C/NUP192]	1.28
KNDEVLGLLLPIAASTD [RPN1]	2.47
PSKVSKIDSHVVLSFSG [PRE6]	1.74
GSPKSATSKTSEMLAKY [CDC53]	1.83
ARGLTATGKKSRGINKG [RPL15A]	3.3
LWDVATGETYQRFVGHK [ASC1]	1.59
FGNSSPQLTFTHVANFM [YML103C/NUP188]	3.04
IDADSLEDIYTSAHEAI [RPL5]	2.9
QFKTTIKDTANDNDITV [UBP6]	2.19
KREESESAAVYNGRGAR [SNF2]	3.35
RKSYKNQIADLSGKFST [ROX3]	2.84
RTLNIQPEVAVKAAINF [YIL149C/MLP2]	1.84
SSTQDVILRKISMLVTQ [CSI1]	1.91
RVVMMKYDRKVPSPTGE [RPO21]	2.69
KQGFVIYRVRVRRGNRK [RPL15A]	1.29
LHNLNEYQIVYYNPQAG [RGR1]	2.1
DCMIAHGAASFLKERLM [RPB2]	2.13
LSLTAFTKNEEKLLKEL [ITC1]	2.29
YKVENVTLYWNNAKLLT [ESC2]	1.71
SPASGIVDKYIGESARI [RPT4]	2.45
FALIDYFYDLDVLKDGE [BRN1]	3.04
GLQNVRKVRTKKWKKYW [SWP82]	3.26
SSFVRQELAKSIRSRRP [PRE1]	1.78
NTSAATVHTATSSSIIL [SSN2]	2.61
IDRNSTILYLNVFHGLC [IRR1]	2.14
EEDFYTVVGNASFGKNL [DSN1]	2.9
NAASGSNSNVTNPSSIF [YOR098C/NUP1]	2.3
LALINYGRQELADDLIT [RPN2]	1.57
DGMDAAHIEKQSLDTIG [RPO21]	3.24
IRTRRAAELLDKRIVIS [DIS3]	1.51
ATPFRQWFEAHYGQTLG [RPS8A]	2.7
RWYQLIATGCKDGRIRI [YGL100W/SEH1]	2.18
APLKHGVGILYKGMASN [BRR2]	1.38
VLITSYEMVIREKNALK [ISW2]	2.37
SDAQSNLGSNVRNSFPL [REC8]	2.87
NDTISEDILQGIFNLLN [NUT1]	2.13
LNELETLIKKKQDEKKS [SMC2]	3.19
IILGTNLYDGAEHKYMP [BRR2]	3.6
LHYLKKFKHIDDKYGRK [SRP72]	3.07
FLQGESPFSITFSVYHE [YMR129W/POM152]	2.64
GNIDTKNNILGSNVLKS [RRP43]	2.92
TFRRRNPYNTRSNKIKV [RPL34A]	1.67
FEVEMILMQQQMMARMA [SRP54]	2.34
IIMFVGLQGSGKTTSCT [SRP54]	3.13
FIGRLPIMLRSKNCYLS [RPB2]	1.17
ASLDGTIRLWECGTGTT [RPN14]	3.19
RNSWNFALIDYFYDLDV [BRN1]	1.33
ELHKEGTISKLENKENG [SMC2]	1.4
YLLEELESYLIVHHPYQ [SSN8]	2.43
SKTVKVLKTLIEKFEQV [RPN6]	3.07
EEYRKQLDKKNELQKFQ [SMC1]	2.82
NKTVNEAAKPSLSFGSG [YJL041W/NSP1]	2.08
EVDVCDKCGLMGYSGWC [RET1]	2.32
VGVNKDSYLILDTLPSE [RPT5]	3.19
IEEAKSIRRQDYINELS [REC8]	3.39

These measurements were taken from the supplement of paper PMC9732359.
